Tested on: Enterobacter cloacae IFO 12937
Test: MIC by agar dilution method (Experimental Example)
Assay type: cell-based
Conditions: IFO12937; test organism (1) Enterobacter cloacae IFO 12937; Trypticase soy agar; inoculum about 10^8 CFU/ml; overnight culture at 37°C; complete growth inhibition
Give measured MIC for each item. Keep answers brief.
Could you write the number and then its unit?

Could you share which MIC value was measured for CCC[C@H]1[C@H](NC(=O)/C(=N\OC(C)(C)C(=O)O)c2csc(N)n2)C(=O)N1S(=O)(=O)O ?
12.5 µg/mL

Could you share which MIC value was measured for COC[C@@H]1[C@H](NC(=O)/C(=N\OCC(=O)O)c2csc(N)n2)C(=O)N1S(=O)(=O)O (relative stereo) ?
3.13 µg/mL

Could you share which MIC value was measured for CC(C)(O/N=C(\C(=O)N[C@@H]1C(=O)N(S(=O)(=O)O)[C@@H]1CS(C)(=O)=O)c1csc(N)n1)C(=O)O (relative stereo) ?
12.5 µg/mL

Could you share which MIC value was measured for CO/N=C(\C(=O)N[C@@H]1C(=O)N(S(=O)(=O)O)[C@@H]1C(N)=O)c1csc(N)n1 (relative stereo) ?
1.56 µg/mL

Could you share which MIC value was measured for COC[C@@H]1[C@H](NC(=O)/C(=N\OC(C)(C)C(=O)O)c2csc(N)n2)C(=O)N1S(=O)(=O)O (relative stereo) ?
1.56 µg/mL
